System: P388 mouse leukemia cells
Conditions: 92 h
Experimental: Each type of assay must be simplified and miniaturized to assess the activities of the library peptides in a 96-well format for the high-throughput screening. […] Mammalian cytotoxicity assay of bead-derived peptides . P388 cells were obtained from Institute of […] for 92 h, the numbers of viable cells were determined by […] at 37 °C. The absorbance of each well at 415 nm was measured using a Benchmark microplate reader (Bio-Rad). The cytotoxicities were evaluated as cell viability (%). […]
Where a SMILES comes first, the peptide text is derived from it. [ ]: non-standard residue; d: D form. The star is where a group is joined. NHCH2CH2OH = OCCN*; For = O=C*
For each of the compounds below, state its cell viability/%.
Give the value; after it, write the unit.

Record request: cell viability/% value, item CC(C)C[C@@H](NC(=O)[C@H](C)NC(=O)[C@H](NC(=O)[C@H](C)NC(=O)CNC(=O)[C@@H](NC=O)C(C)C)C(C)C)C(=O)N[C@H](C(=O)N[C@H](CC(C)C)C(=O)N[C@@H](Cc1c[nH]c2ccccc12)C(=O)N[C@@H](C(=O)N[C@@H](Cc1c[nH]c2ccccc12)C(=O)N[C@H](CC(C)C)C(=O)N[C@@H](Cc1c[nH]c2ccccc12)C(=O)N[C@H](CC(C)C)C(=O)N[C@@H](Cc1c[nH]c2ccccc12)C(=O)NCCO)C(C)C)C(C)C [compound 5699] (For-VGA[dV]A[dL]V[dL]W[dV]W[dL]W[dL]W-NHCH2CH2OH)
36.7%

So what's the measured cell viability/% for this one? CNC(=O)C[C@@H](NC(=O)[C@H](Cc1c[nH]c2ccccc12)NC(=O)[C@@H](CC(C)C)NC(=O)[C@H](Cc1c[nH]c2ccccc12)NC(=O)[C@H](NC(=O)[C@H](Cc1c[nH]c2ccccc12)NC(=O)[C@@H](CC(C)C)NC(=O)[C@@H](NC(=O)[C@H](NC(=O)[C@H](C)NC(=O)[C@@H](CC(C)C)NC(=O)[C@H](C)NC(=O)CNC(=O)[C@@H](NC=O)C(C)C)C(C)C)C(C)C)C(C)C)C(=O)N[C@@H](Cc1c[nH]c2ccccc12)C(=O)NCCO [compound 10043] (For-VGA[dL]A[dV]V[dL]W[dV]W[dL]W[dD](NHMe)W-NHCH2CH2OH)
56.6%

// lookup cell viability/% for CNC(=O)C[C@@H](NC(=O)[C@@H](NC(=O)[C@@H](CC(C)C)NC(=O)[C@H](C)NC(=O)[C@@H](CC(C)C)NC(=O)[C@H](C)NC(=O)CNC(=O)[C@@H](NC=O)C(C)C)C(C)C)C(=O)N[C@@H](Cc1c[nH]c2ccccc12)C(=O)N[C@H](CC(C)C)C(=O)N[C@@H](Cc1c[nH]c2ccccc12)C(=O)N[C@H](CC(C)C)C(=O)N[C@@H](Cc1c[nH]c2ccccc12)C(=O)N[C@@H](C(=O)N[C@@H](Cc1c[nH]c2ccccc12)C(=O)NCCO)[C@H](C)O [compound 2967] (For-VGA[dL]A[dL]V[dD](NHMe)W[dL]W[dL]W[dT]W-NHCH2CH2OH)
100.0%

Value lookup for cell viability/%; key = CC(C)C[C@@H](NC(=O)[C@H](C)NC(=O)[C@H](NC(=O)[C@H](C)NC(=O)CNC(=O)[C@@H](NC=O)C(C)C)C(C)C)C(=O)N[C@H](C(=O)N[C@@H](C(=O)N[C@@H](Cc1c[nH]c2ccccc12)C(=O)N[C@H](CC(C)C)C(=O)N[C@@H](Cc1c[nH]c2ccccc12)C(=O)N[C@@H](C(=O)N[C@@H](Cc1c[nH]c2ccccc12)C(=O)N[C@@H](C(=O)N[C@@H](Cc1c[nH]c2ccccc12)C(=O)NCCO)C(C)C)C(C)C)[C@H](C)O)C(C)C [compound 8779] (For-VGA[dV]A[dL]V[dT]W[dL]W[dV]W[dV]W-NHCH2CH2OH)
40.6%
